- Test system: PDC KRAS tumor spheroids with HUVEC/MSC, viability;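 note: spheroids exposed to compounds for seven days before readout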
- test-method-notes: Anticancer human tumor 349418-098-R-PDC patient-derived lung adenocarcinoma cell line growth inhibition [KRAS2]
- condition-parameters: second compound 0.316 µM; first compound 0.0316 µM; hits give low values
measured-attribute: viability, T/C (%)
Note: unit % is implicit; provide only the numeric part.

Lab note: measured viability, T/C of CC1OCC2(CCN(c3cnc(Sc4ccnc(N)c4Cl)c(N)n3)CC2)C1N (stereo not given) + CNCc1ccccc1-c1csc(C(C)Nc2nc(C)nc3cc(OC)c(OC)cc23)c1 was 103

Form field viability, T/C, entry CCNC(=O)CC1N=C(c2ccc(Cl)cc2)c2cc(OC)ccc2-n2c(C)nnc21 (stereo not given) + CC1OCC2(CCN(c3cnc(Sc4ccnc(N)c4Cl)c(N)n3)CC2)C1N : 103

# molecule COc1cc2nccc(Oc3ccc(NC(=O)C4(C(=O)Nc5ccc(F)cc5)CC4)cc3)c2cc1OC + COc1cc2nc(C)nc(NC(C)c3cc(N)cc(C(F)(F)F)c3)c2cc1OC1CCOC1 ; its viability, T/C = 102

Query CC(=O)Nc1cccc(-n2c(=O)n(C3CC3)c(=O)c3c(Nc4ccc(I)cc4F)n(C)c(=O)c(C)c32)c1 + CNCc1ccccc1-c1csc(C(C)Nc2nc(C)nc3cc(OC)c(OC)cc23)c1 yields viability, T/C of 5.28

For record COc1cc(Nc2ncc3c(n2)-c2ccc(Cl)cc2C(c2c(F)cccc2OC)=NC3)ccc1C(=O)O + C=CC(=O)N1CCN(c2nc(=O)n(-c3c(C)ccnc3C(C)C)c3nc(-c4c(O)cccc4F)c(F)cc23)C(C)C1 the listed viability, T/C is 45.5

Form: molecule = CC1(C)CCC(CN2CCN(c3ccc(C(=O)NS(=O)(=O)c4ccc(NCC5CCOCC5)c([N+](=O)[O-])c4)c(Oc4cnc5[nH]ccc5c4)c3)CC2)=C(c2ccc(Cl)cc2)C1 + C=CC(=O)N1CCN(c2nc(OCC3CCCN3C)nc3c2CCN(c2cccc4cccc(C)c24)C3)CC1CC#N ; viability, T/C = 92.6

GET /value?item= CC1COCCN1c1cc(-c2ccnn2C)c2ccnc(-c3ccn[nH]3)c2n1 (stereo not given) + CC1OCC2(CCN(c3cnc(Sc4ccnc(N)c4Cl)c(N)n3)CC2)C1N &field=viability, T/C returns 39.4

Query CC(C)NCC(C(=O)N1CCN(c2ncnc3c2C(C)CC3O)CC1)c1ccc(Cl)cc1 (stereo not given) + CC1OCC2(CCN(c3cnc(Sc4ccnc(N)c4Cl)c(N)n3)CC2)C1N yields viability, T/C of 100

viability, T/C in this record for CC(=O)OC12COC1CC(O)C1(C)C(=O)C(O)C3=C(C)C(OC(=O)C(O)C(NC(=O)OC(C)(C)C)c4ccccc4)CC(O)(C(OC(=O)c4ccccc4)C21)C3(C)C (stereo not given) + C=CC(=O)N1CCN(c2nc(=O)n(-c3c(C)ccnc3C(C)C)c3nc(-c4c(O)cccc4F)c(F)cc23)C(C)C1 : 12.7

Record summary for CC1(C)CCC(CN2CCN(c3ccc(C(=O)NS(=O)(=O)c4ccc(NCC5CCOCC5)c([N+](=O)[O-])c4)c(Oc4cnc5[nH]ccc5c4)c3)CC2)=C(c2ccc(Cl)cc2)C1 + COc1cc2nc(C)nc(NC(C)c3cc(N)cc(C(F)(F)F)c3)c2cc1OC1CCOC1 : reported viability, T/C = 104
